Target Under Test: recombinant human plasma kallikrein (Human PKal) (Homo sapiens, UniProt P03952)
Construct: Gly20-Ala638 derived from NS0- with a 60-His appendage at the C-terminus; His tag ('60-His' [sic]) (C)
Sequence (P03952 20-638): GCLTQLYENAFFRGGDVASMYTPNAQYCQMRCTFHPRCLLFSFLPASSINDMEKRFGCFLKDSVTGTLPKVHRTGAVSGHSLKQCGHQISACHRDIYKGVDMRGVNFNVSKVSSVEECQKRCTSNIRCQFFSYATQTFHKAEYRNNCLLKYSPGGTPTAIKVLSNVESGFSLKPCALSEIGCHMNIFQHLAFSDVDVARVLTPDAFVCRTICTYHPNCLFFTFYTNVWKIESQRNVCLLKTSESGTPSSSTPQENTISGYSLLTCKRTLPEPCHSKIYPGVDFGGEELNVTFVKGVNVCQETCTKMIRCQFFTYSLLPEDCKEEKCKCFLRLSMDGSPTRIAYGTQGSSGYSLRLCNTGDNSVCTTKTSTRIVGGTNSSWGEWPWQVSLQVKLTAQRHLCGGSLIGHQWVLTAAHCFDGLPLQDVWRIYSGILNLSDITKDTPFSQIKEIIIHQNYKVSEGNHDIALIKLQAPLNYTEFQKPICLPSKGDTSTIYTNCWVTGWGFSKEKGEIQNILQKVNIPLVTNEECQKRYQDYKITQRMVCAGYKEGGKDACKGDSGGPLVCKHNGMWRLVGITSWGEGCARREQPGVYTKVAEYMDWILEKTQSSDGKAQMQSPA
Assay Remarks: Inhibitory effect of test compounds on plasma kallikrein (PKal), fluorogenic substrate Z-FR-AMC
Measurement Context: 10 µM Z-FR-AMC, 10 min pre-incubation
Quantity Measured: IC50 (nM)

[1] COc1ccnc(CNC(=O)c2cn(Cc3ccc(Cn4ccccc4=O)cc3)nc2C2COC2)c1F
[2] COc1ccc(Cl)c(CNC(=O)c2cn(Cc3ccc(Cn4cc(F)ccc4=O)cc3)nc2C2COC2)c1F
Query: I would appreciate it if you could say which entry, 1 or 2 , has the lower IC50 value. Respond using the label that marks the chosen record.
Reply: 1

[1] COc1ccc(F)c(CNC(=O)c2cn(Cc3ccc(Cn4cc(F)ccc4=O)nc3)nc2C2COC2)c1F
[2] COc1ccnc(CNC(=O)c2cn(Cc3ccc(Cn4cc(F)ccc4=O)cc3)nc2C2COC2)c1F
Query: Could you tell me which of 1 and 2 has the lower IC50 reading? # respond with the chosen item's label
Reply: 2
(2: 1.53 nM, 1: 2.63 nM)

====

Assay Remarks: Pharmacokinetic test in rats after intravenous and intragastric administration (plasma, LC-MS/MS)
Type: in vivo
Measurement Context: male, SD, po, rat, intragastric administration (group 1), nominal 2 mg/kg (actual dose in c2), read-out: Curve area (o-inf) AUC0-inf
Quantity Measured: AUC(0-inf) (µM·h)

>  <Compound>
COc1ccnc(CNC(=O)c2cn(Cc3ccc(Cn4ccccc4=O)cc3)nc2C2COC2)c1F [Compound 17]

>  <AUC(0-inf) (µM·h)>
0.246

$$$$
>  <Compound>
COc1ccc(F)c(CNC(=O)c2cn(Cc3ccc(Cn4cc(F)ccc4=O)cc3)nc2C2COC2)c1F [Compound 1]

>  <AUC(0-inf) (µM·h)>
1.34

$$$$

[a] COc1ccc(F)c(CNC(=O)c2cn(Cc3ccc(Cn4cc(F)ccc4=O)nc3)nc2C2COC2)c1F [Compound 6]
[b] COc1ccc(F)c(CNC(=O)c2cn(Cc3ccc(Cn4ccccc4=O)cc3)nc2C2COC2)c1F [Compound 16]
Query: Field: entry with larger AUC(0-inf) (options a / b ). # answer = label of selected item
Reply: b
(b: 1.94 µM·h, a: 0.661 µM·h)

====

Assay Remarks: Pharmacokinetic test in rats after intravenous and intragastric administration (plasma, LC-MS/MS)
Assay type: in vivo
Measurement Context: male, SD, po, rat, intragastric administration (group 1), nominal 2 mg/kg (actual dose in c2), read-out: Half-life T½ (converted)
Quantity Measured: half-life (h)

>  <Compound Structure>
COc1ccc(F)c(CNC(=O)c2cn(Cc3ccc(Cn4cc(F)ccc4=O)nc3)nc2C2COC2)c1F

>  <half-life, h>
2.34

$$$$

[a] COc1ccnc(CNC(=O)c2cn(Cc3ccc(Cn4ccccc4=O)cc3)nc2C2COC2)c1F
[b] COc1ccc(F)c(CNC(=O)c2cn(Cc3ccc(Cn4ccccc4=O)cc3)nc2C2COC2)c1F
[c] COc1ccc(F)c(CNC(=O)c2cn(Cc3ccc(Cn4cc(F)ccc4=O)c(F)c3)nc2C2COC2)c1F
Query: Place the items in sequence of falling half-life. Please, when replying, give the labels in the order that was requested.
Reply: b, c, a
(b: 2.27 h, c: 1.57 h, a: 0.846 h)

====

Assay Remarks: Pharmacokinetic test in rats after intravenous and intragastric administration (plasma, LC-MS/MS)
Type: in vivo
Measurement Context: male, SD, po, rat, intragastric administration (group 1), nominal 2 mg/kg (actual dose in c2), read-out: Peak time Tmax
Quantity Measured: Tmax (min)

[I] COc1ccc(F)c(CNC(=O)c2cn(Cc3ccc(Cn4cc(F)ccc4=O)cc3)nc2C2COC2)c1F [Compound 1]
[II] COc1ccc(F)c(CNC(=O)c2cn(Cc3ccc(Cn4ccccc4=O)cc3)nc2C2COC2)c1F [Compound 16]
[III] COc1ccc(F)c(CNC(=O)c2cn(Cc3ccc(Cn4cc(F)ccc4=O)c(F)c3)nc2C2COC2)c1F [Compound 8]
Query: Ranking criterion: Tmax, increasing numeric value. Items: as listed above. API: response body holds the labels in the requested order.
Reply: III, I, II

====

Assay Remarks: Pharmacokinetic test in rat eyes after intragastric administration (eye tissue and plasma, LC-MS/MS)
Format: in vivo, male SD rats
Measurement Context: male, SD, plasma, oral, intragastric 75 mg/kg, 8 hours, read-out: Concentration of compound in Plasma
Quantity Measured: concentration at 8 h (nM)
Report the value in nM with no unit label.

Query: Item COc1ccc(F)c(CNC(=O)c2cn(Cc3ccc(Cn4cc(F)ccc4=O)cc3)nc2C2COC2)c1F [Compound 1] has what recorded concentration at 8 h?
Reply: 729

====

Assay Remarks: Pharmacokinetic test in rats after intravenous and intragastric administration (plasma, LC-MS/MS)
Assay type: in vivo
Measurement Context: male, SD, rat, intravenous administration, nominal 1 mg/kg (actual dose in c2), read-out: Curve area (o-inf) AUC0-inf
Quantity Measured: AUC(0-inf) (µM·h)

Below: 3 molecules and their reported AUC(0-inf).
>  <Molecule>
COc1ccc(Cl)c(CNC(=O)c2cn(Cc3ccc(Cn4ccccc4=O)cc3)nc2C2COC2)c1F [Compound 4]

>  <Unit Descriptor>
µM·h

>  <AUC(0-inf)>
3.95

$$$$
>  <Molecule>
COc1ccc(Cl)c(CNC(=O)c2cn(Cc3ccc(Cn4cc(F)ccc4=O)cc3)nc2C2COC2)c1F [Compound 3]

>  <Unit Descriptor>
µM·h

>  <AUC(0-inf)>
5.5

$$$$
>  <Molecule>
COc1ccc(F)c(CNC(=O)c2cn(Cc3ccc(Cn4cc(F)ccc4=O)cc3)nc2C2COC2)c1F [Compound 1]

>  <Unit Descriptor>
µM·h

>  <AUC(0-inf)>
4.38

$$$$

[1] COc1ccc(F)c(CNC(=O)c2cn(Cc3ccc(Cn4cc(F)ccc4=O)c(F)c3)nc2C2COC2)c1F [Compound 8]
[2] COc1ccc(F)c(CNC(=O)c2cn(Cc3ccc(Cn4ccccc4=O)cc3)nc2C2COC2)c1F [Compound 16]
Query: // pick larger AUC(0-inf) from pair: 1 vs 2 // caller expects the label of the chosen entry
Reply: 2
(2: 4.39 µM·h, 1: 2.62 µM·h)

====

Assay Remarks: Pharmacokinetic test in rats after intravenous and intragastric administration (plasma, LC-MS/MS)
Type: in vivo
Measurement Context: male, SD, po, rat, intragastric administration (group 1), nominal 2 mg/kg (actual dose in c2), read-out: Plasma drug concentration Cmax
Quantity Measured: Cmax (nM)

>  <Compound Structure>
COc1ccc(F)c(CNC(=O)c2cn(Cc3ccc(Cn4cc(F)ccc4=O)nc3)nc2C2COC2)c1F

>  <Unit Descriptor>
nM

>  <Cmax>
650

$$$$

[1] COc1ccnc(CNC(=O)c2cn(Cc3ccc(Cn4cc(F)ccc4=O)cc3)nc2C2COC2)c1F
[2] COc1ccc(Cl)c(CNC(=O)c2cn(Cc3ccc(Cn4cc(F)ccc4=O)cc3)nc2C2COC2)c1F
[3] COc1ccc(F)c(CNC(=O)c2cn(Cc3ccc(Cn4cc(F)ccc4=O)cc3)nc2C2COC2)c1F
[4] COc1ccc(F)c(CNC(=O)c2cn(Cc3ccc(Cn4cc(F)ccc4=O)c(F)c3)nc2C2COC2)c1F
Query: List items by Cmax in falling order. When ranking, write the labels in the order the request describes.
Reply: 2, 3, 4, 1
(2: 1760 nM, 3: 1140 nM, 4: 680 nM, 1: 301 nM)

====

Assay Remarks: Pharmacokinetic test in rats after intravenous and intragastric administration (plasma, LC-MS/MS)
Assay type: in vivo
Measurement Context: male, SD, po, rat, intragastric administration (group 2), nominal 30 mg/kg (actual dose in c2), read-out: Half-life T½ (converted)
Quantity Measured: half-life (min)

>  <Compound Structure>
COc1ccc(F)c(CNC(=O)c2cn(Cc3ccc(Cn4ccccc4=O)c(F)c3)nc2C2COC2)c1F

>  <Unit Descriptor>
min

>  <half-life>
157

$$$$
>  <Compound Structure>
COc1ccc(F)c(CNC(=O)c2cn(Cc3ccc(Cn4cc(F)ccc4=O)c(F)c3)nc2C2COC2)c1F

>  <Unit Descriptor>
min

>  <half-life>
115

$$$$

====

Assay Remarks: Pharmacokinetic test in rats after intravenous and intragastric administration (plasma, LC-MS/MS)
Type: in vivo
Measurement Context: male, SD, rat, intravenous administration, nominal 1 mg/kg (actual dose in c2), read-out: Half-life T½ (converted)
Method: Male SD rats were used as test animals, and LC-MS/MS method was used to determine the drug concentrations in plasma of rats at different times after intravenous and intragastric administration of test compounds. The pharmacokinetic behaviors of the compounds in rats were studied and the pharmacokinetic characteristics were evaluated. 2.2 Test animals: 28 healthy adult male SD rats were divided into 14 groups with 2 rats in each group. […]
Quantity Measured: half-life (min)

Solved entries (count: 2):
>  <Compound>
COc1ccc(Cl)c(CNC(=O)c2cn(Cc3ccc(Cn4ccccc4=O)cc3)nc2C2COC2)c1F [Compound 4]

>  <half-life, min>
36.3

$$$$
>  <Compound>
COc1ccc(Cl)c(CNC(=O)c2cn(Cc3ccc(Cn4cc(F)ccc4=O)cc3)nc2C2COC2)c1F [Compound 3]

>  <half-life, min>
42.8

$$$$

[P] COc1ccc(F)c(CNC(=O)c2cn(Cc3ccc(Cn4cc(F)ccc4=O)cc3)nc2C2COC2)c1F [Compound 1]
[Q] COc1ccc(F)c(CNC(=O)c2cn(Cc3ccc(Cn4cc(F)ccc4=O)c(F)c3)nc2C2COC2)c1F [Compound 8]
Query: Hey, between P and Q which has a smaller measured half-life? State your choice using its label.
Reply: Q
(Q: 23.5 min, P: 37.4 min)
